Recorded values, source ChEMBL document CHEMBL1146333.

assay: Elimination half life in Sprague-Dawley rat at 10 mg/kg, po; type: ADME, organism-based; parameters: dose 10 mg/kg, route oral; conditions: in vivo
MEASUREMENT TYPE: half-life (h)
Give bare numbers, in h.

Name the recorded half-life for COc1ccc(Nc2nc(Nc3ccccc3)nc(N3CCOCC3)n2)cc1 .
1.16

---

Give pIC50 for every item shown.
test system: HCT-116; assay: Growth inhibition of human HCT116 cells after 72 hrs by SRB assay; assay type: functional, cell-based; conditions: HCT-116, 72 h
Answers are plain numbers, as −log10 of the molar value.

# count of solved cases: 2
COc1ccc(Nc2nc(Nc3ccccc3)nc(N3CCOCC3)n2)cc1OC: 6.04
NS(=O)(=O)c1ccc(Nc2nc(Nc3ccccc3)nc(N3CCOCC3)n2)cc1: 5.70

# map each molecule to its pIC50
1. CSc1ccc(Nc2nc(Nc3ccc(C)cc3)nc(N3CCOCC3)n2)cc1
2. c1ccc(Nc2nc(Nc3ccccc3)nc(N3CCOCC3)n2)cc1
3. NC(=O)c1ccc(Nc2nc(Nc3ccccc3)nc(N3CCOCC3)n2)cc1

3.92
5.33
5.02

Find the measured pIC50: item COc1ccc(Nc2nc(Nc3ccccc3)nc(N3CCOCC3)n2)cc1 , target or system HCT-116.
6.12

---

assay: Elimination half life in Sprague-Dawley rat at 2 mg/kg, iv; format: ADME, organism-based; parameters: dose 2 mg/kg, route intravenous; conditions: in vivo
MEASUREMENT TYPE: half-life (h)
One number for each entry, in h.

If you can, please state the reported half-life value of COc1ccc(Nc2nc(Nc3ccccc3)nc(N3CCOCC3)n2)cc1 .
1.09

---

test: Cmax in Sprague-Dawley rat at 10 mg/kg, po after 15 mins; format: ADME, organism-based; design: dose 10 mg/kg, route oral; conditions: in vivo
MEASUREMENT TYPE: Cmax
Remember to quote the unit after the number.

Which Cmax is reported for this compound? COc1ccc(Nc2nc(Nc3ccccc3)nc(N3CCOCC3)n2)cc1
1290 ng/mL

---

tested on: Rattus norvegicus; test: Volume of distribution in Sprague-Dawley rat at 2 mg/kg, iv; type: ADME, organism-based; set-up: dose 2 mg/kg, route intravenous; conditions: in vivo
MEASUREMENT TYPE: Vdss (L/kg)
Answers are plain numbers, in L/kg.

Fill in: Vdss of COc1ccc(Nc2nc(Nc3ccccc3)nc(N3CCOCC3)n2)cc1 is ___
2.11

---

assay: Oral bioavailability in Sprague-Dawley rat at 10 mg/kg; format: ADME, organism-based; details: in vivo
MEASUREMENT TYPE: bioavailability (%)
One number for each entry, in %.

Report bioavailability for COc1ccc(Nc2nc(Nc3ccccc3)nc(N3CCOCC3)n2)cc1 please.
30.9

---

assay: Mean resident time in Sprague-Dawley rat at 10 mg/kg, po; assay type: ADME, organism-based; parameters: dose 10 mg/kg, route oral; settings: in vivo
MEASUREMENT TYPE: MRT (h)
Give bare numbers, in h.

Please look up its MRT: COc1ccc(Nc2nc(Nc3ccccc3)nc(N3CCOCC3)n2)cc1
1.88

---

test system: HCT-116; assay: Growth inhibition of human HCT116 cells at 10 uM after 72 hrs by SRB assay; type: functional; conditions: HCT-116, 72 h
MEASUREMENT TYPE: inhibition at 10 µM (%)
One number for each entry, in %.

CCOc1ccc(Nc2nc(Nc3ccccc3)nc(N3CCOCC3)n2)cc1: 64.1
c1ccc(CNc2nc(Nc3ccccc3)nc(N3CCOCC3)n2)cc1: 48.7
COc1ccc(Nc2nc(NCc3ccccc3)nc(N3CCOCC3)n2)cc1: 20.1
COc1ccccc1Nc1nc(Nc2ccccc2)nc(N2CCOCC2)n1: 78.3
COc1ccc(Nc2nc(Nc3ccc(SC)cc3)nc(N3CCOCC3)n2)cc1OC: 79.2
COc1cccc(Nc2nc(Nc3ccccc3)nc(N3CCOCC3)n2)c1: 82.6

Required: inhibition at 10 µM, one value per molecule below.
1. c1ccc(Nc2nc(N3CCOCC3)nc(N3CCOCC3)n2)cc1
2. Fc1ccc(Nc2nc(Nc3ccccc3)nc(N3CCOCC3)n2)cc1
3. OCCN1CCN(c2nc(Nc3ccccc3)nc(Nc3ccccc3)n2)CC1
4. FC(F)(F)Oc1ccc(Nc2nc(Nc3ccccc3)nc(N3CCOCC3)n2)cc1
5. Cc1ccc(CNc2nc(Nc3ccccc3)nc(N3CCOCC3)n2)cc1

44.9
60.1
22
63.4
15.7

Please go through the list and note inhibition at 10 µM for each molecule.
1. c1ccc(Nc2nc(NCCN3CCOCC3)nc(Nc3ccccc3)n2)cc1
2. Brc1ccc(Nc2nc(Nc3ccccc3)nc(N3CCOCC3)n2)cc1
3. COc1ccc(Nc2nc(Nc3ccccc3)nc(N3CCN(CCO)CC3)n2)cc1
4. COc1ccc(Nc2nc(Nc3ccccc3)nc(N3CCOCC3)n2)cc1
5. COc1ccc(Nc2nc(Nc3ccccc3)nc(N3CCOCC3)n2)cc1OC
6. Fc1ccc(Nc2nc(Nc3ccc(OC(F)(F)F)cc3)nc(N3CCOCC3)n2)cc1
7. c1ccc(Nc2nc(Nc3ccccc3)nc(N3CCOCC3)n2)cc1

1: 30.1; 2: 77.7; 3: 19; 4: 81.4; 5: 84.7; 6: 62; 7: 81.3
